Experiment: Metabolic stability in liver microsomes
Assay type: in vitro ADME
Conditions: rat, pH 6.4, 30 minutes at 37°C
resultType: remaining at 0.5 h, 1 µM (%)
Lab book: enter the figure in %, no units written.

Task item: Value lookup for remaining at 0.5 h, 1 µM; key = "O=S(=O)(/C=C/c1ncccc1Cl)c1ccccc1F"
Reply: 23
